This listing pairs compounds with measured growth.
- Test system: OVCAR-3 ovarian
- PROTOCOL_DESCRIPTION: NCI-60 one-dose screen, 48 h (100 = growth as untreated, 0 = no growth, -100 = all killed)
- RECORDED_CONDITIONS: 10 µM unless noted
About 83,000 compounds went through this panel and 20% of them were active in at least one assay; those are over-represented in the sample as a whole. Active and inactive are the calls of the source. Rule for the calls: active = growth percent below 10; inactive = the rest.

Some solved cases for reference:
COMPOUND	growth
CC(=O)Oc1ccc(/C(=C(\C)c2ccc(Cl)cc2)c2ccc(OCCN3CCCCC3)cc2)cc1	66.7% (inactive)
O=C1c2ccccc2-c2c1c1c(=O)[nH]c3ccccc3c1n2Cc1ccccc1	77.2% (inactive)
CCCCCCC12CCC(=O)N1CCc1cncn12 (configuration not stated)	118% (inactive)

Input `CN(C)CC(C)(C)C(=O)/C=C/c1ccccc1` . Output growth: -18.5% [25 µM] (active)

// recorded growth for `CC(C)COc1nc2c(c(=O)n(C)c(=O)n2C)n1C` : 106% (inactive)

Form: compound = `O=c1c2ccccc2n2cnc3ccc(Cl)c1c32` ; growth = 85.2% (inactive)

The measured growth associated with `c1ccc([P+](c2ccccc2)(c2ccccc2)c2ccc3c4ccc([P+](c5ccccc5)(c5ccccc5)c5ccccc5)c5cccc(c6cccc2c63)c54)cc1` reads 19.3% (inactive)

Please fill in: growth reported for `N#C/C(=C\c1c(-c2ccccc2)[nH]c2ccccc12)C(N)=O` = 81.2% (inactive)

Reported growth ( `CCCCNC(=O)CC1=C(C)/C(=C/c2[nH]c(-c3ccc[nH]3)cc2OC)N=C1C` ) = 24.4% (inactive)

GET /value?item= O=C(c1nn(-c2ccccc2)c2c1CC(NCc1ccc(F)cc1)CC2)N1CCCCC1 (configuration not stated) &field=growth returns 104% (inactive)

Just so you know, measured growth for `OB1OCc2cc(/C=C/c3cccc(C(F)(F)F)c3)ccc21` came out at -27.3% (active)

Value of growth reported for the compound `O=S(=O)(Nc1ccc(F)cc1F)c1ccc(-c2cnc(C3CC3)o2)cc1` is 13.4% (inactive)

Record summary for `CCNCCNc1cc(C2CCCCC2)c(C#N)c2nc3ccccc3n12` : reported growth = -67.9% (active)

get_value(item= `c1csc(-c2ccc(CNc3c4ccccc4nc4ccccc34)cc2)c1` , readout=growth) returns 9.5% (active)

Please fill in: growth reported for `COC1=CC(c2ccc[nH]2)=N/C1=C\c1[nH]c(C)c(C)c1CCC(=O)OCc1ccccc1` = -73.8% (active)

Record `COCCn1cc(-c2csc(-c3cn(C)c4ccc(Br)cc34)n2)c2cccnc21` , field growth: 80.3% (inactive)
